Assay: yeast display, Sf9 membrane polyspecificity reagent, FACS + sequencing; frameworks hold sequencing errors
observedProperty: polyreactivity (PSR sort gate)

1. QVQLVESGGGLVQAGGSLRLSCAASGRIFARNAMGWYRQAPGKESELVAAINWSGGSTYYADSVKGRFTISRDNAKNTVYLQMNSLKPEDTAVYYCATRSSLFRQYLPWYEYWGQGTQVTVSS: low polyreactivity
2. QVKLVESGGGLVQAGGSLRLSCAASGSTFAGTAMGWYRQAPGKEREMVAAISWNTGSTYADSVKGRFTISRDNAKNTVYLQMNSLKPEDTAVYYCAADRSHAYYRKNRVDYWGQGTQVTVSS: low polyreactivity
3. QDQHVDSGGGLVQAGGSLRLRCAASGFTIADYAMGWYRQAPGKERELVAAINRSGGRTYYADSVKGRFTISRDYAKNTVYLQMNMLKPEDTAVYYCAAYGITYHNSDSWGQGTQVTVSS: high polyreactivity
4. QVQLVESGGGLVQAGGSLSLSCAASGFIFPRYTMGWYRQAPGKERELVAAMTSSGGTNYADSVKGRFTISRDNAKNTVYLQMNSLKPEDTAVYYCAARRRTQQGYGGGYWGQGTQVTVSS: high polyreactivity
5. QDQLVESGGGLVQSGGSLLLSCAPSGSTFVWYAMGWYRQERGKEMEFDATISWSDGSTYYADSVKGRFTISRDNPKNTVYLQMNILKPEDTAVYYCAAEQYGYYYSLWEYDNIWEGYWGPGTQVTVSS: low polyreactivity
